- Tested on: A2780 cells
- Assay method text: Cell Viability Assay (ATPlite 1step), A2780
- Format: cell-based
- Protocol conditions: Homo sapiens; A2780, 20 uM compound, 72 hours; read-out: Cell Viability % inhibition A2780 (20 uM Cpd)
- Description: Cell Viability Assay Protocol Cells were trypsinized, counted, and re-seeded into a 384-well tissue culture plate at 1000 cells per well in […] media. Cells were incubated at 37° C. in an atmosphere of 5% CO2 for 24 hours. Experimental compounds, initially dissolved in DMSO and diluted further in media were added to the wells and incubated for 72 hours. Cell viability was measured using the ATPlite 1step Luminescence Detection Assay system (Perkin Elmer) as described in the Assay kit instructions. […]
// returns not fulfilled unless percent inhibition of cell viability at 20 µM is strictly below 80%, in which case fulfilled

Compound: Cc1ncc(C(=O)Nc2ncc(-c3cccc(S(=O)(=O)C4CC4)c3)cc2F)cn1 [Compound 70]
System tested: A2780 cells
Class label: not fulfilled
//
Compound: O=C(Nc1ccc(-c2ccsc2)cn1)c1cncnc1 [Compound 7]
System tested: A2780 cells
Class label: not fulfilled

Kindly review the next compound as well.
Is the reported percent inhibition of cell viability at 20 µM for O=C(Nc1ncc(-c2ccccc2)cn1)c1cncnc1 [Compound 12] strictly below 80%?
not fulfilled
